# TARGET ENTITY: Recombinant N-terminal GST tag full-length human HDAC8 (Homo sapiens, UniProt Q9BY41)
# Construct: Recombinant N-terminal GST tag full-length human HDAC8
# Sequence (Q9BY41 whole entry): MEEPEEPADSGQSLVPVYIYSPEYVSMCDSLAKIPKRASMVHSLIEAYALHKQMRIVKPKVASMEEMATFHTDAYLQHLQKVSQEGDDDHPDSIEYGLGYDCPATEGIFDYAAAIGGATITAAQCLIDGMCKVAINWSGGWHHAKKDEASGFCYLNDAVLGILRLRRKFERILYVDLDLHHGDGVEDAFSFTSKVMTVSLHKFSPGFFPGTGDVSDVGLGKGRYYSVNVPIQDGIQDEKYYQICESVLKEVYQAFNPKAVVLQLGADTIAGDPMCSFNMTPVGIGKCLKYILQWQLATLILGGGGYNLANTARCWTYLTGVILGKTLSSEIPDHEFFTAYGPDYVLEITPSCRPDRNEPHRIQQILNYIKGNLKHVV
# PROTOCOL DETAILS: HDAC8 probe binding assay, time resolved fluorescence (TRF) format
# ASSAY CONTEXT: compounds grouped by IC50 range (Table 2)
pIC50: −log10 of the molar value.
Attribute: pIC50

[
  {
    "COMPOUND": "CC1(C)Oc2ccc(C(=O)NO)cc2N(C/C=C/c2ccccc2)C1=O [Compound I-318]",
    "pIC50": "≥ 7.60"
  },
  {
    "COMPOUND": "CCCCN1C(=O)COc2ccc(C(=O)NO)cc21 [Compound I-45]",
    "pIC50": "7.00 to 7.60"
  },
  {
    "COMPOUND": "O=C(NO)c1ccc2c(c1)N(Cc1ccc(C(F)(F)F)c(F)c1)C(=O)CO2 [Compound I-266]",
    "pIC50": "≥ 7.60"
  },
  {
    "COMPOUND": "CS(=O)(=O)c1cccc(CN2C(=O)COc3ccc(C(=O)NO)cc32)c1 [Compound I-145]",
    "pIC50": "7.00 to 7.60"
  }
]

Below: the item to evaluate.
get_value(item= CC1(C)Oc2ccc(C(=O)NO)cc2N(Cc2nc3ccccc3s2)C1=O [Compound I-295] , readout=pIC50) returns 7.00 to 7.60

---

Listed here: items and their measured IC50.
# TARGET ENTITY: Recombinant N-terminal GST tag full-length human HDAC8 (Homo sapiens, UniProt Q9BY41)
# Construct: Recombinant N-terminal GST tag full-length human HDAC8
# PROTOCOL DETAILS: HDAC8 probe binding assay, time resolved fluorescence (TRF) format
# ASSAY CONTEXT: compounds grouped by IC50 range (Table 2)

[
  {
    "COMPOUND": "O=C(NO)c1ccc2c(c1)N(Cc1ccccc1)CCO2",
    "REPORTED VALUE": "25 to 100 nM"
  },
  {
    "COMPOUND": "Cc1ccc(CN2C(=O)COc3ccc(C(=O)NO)cc32)cc1",
    "REPORTED VALUE": "≤ 25 nM"
  },
  {
    "COMPOUND": "O=C(NO)c1ccc2c(c1)N(CC1CCc3ccccc3O1)C(=O)CO2 (racemic)",
    "REPORTED VALUE": "25 to 100 nM"
  },
  {
    "COMPOUND": "O=C(NO)c1ccc2c(c1)N(Cc1ccc(Cl)cc1)C(=O)CO2",
    "REPORTED VALUE": "≤ 25 nM"
  }
]

Let us move to another entry and its IC50.
Value (IC50, Recombinant N-terminal GST tag full-length human HDAC8 (Homo sapiens, UniProt Q9BY41)) for record "O=C(NO)c1ccc2c(c1)N(Cc1c[nH]c3ccccc13)C(=O)CO2" = 25 to 100 nM

---

# TARGET ENTITY: Recombinant N-terminal GST tag full-length human HDAC8 (Homo sapiens, UniProt Q9BY41)
# Construct: Recombinant N-terminal GST tag full-length human HDAC8
# PROTOCOL DETAILS: HDAC8 probe binding assay, time resolved fluorescence (TRF) format
# ASSAY CONTEXT: compounds grouped by IC50 range (Table 2)
IC50 by entry:

[
  {
    "CHEMICAL SMILES": "CC1(C)Oc2ccc(C(=O)NO)cc2N(Cc2nc3cc(Cl)ccc3s2)C1=O",
    "IC50": "0.025 to 0.1 µM"
  },
  {
    "CHEMICAL SMILES": "CC1(C)Oc2ccc(C(=O)NO)cc2N(Cc2nc3ccc(Cl)cc3o2)C1=O",
    "IC50": "≤ 0.025 µM"
  }
]

Simply: "COc1ccc(CN2C(=O)C(C)(C)Oc3ccc(C(=O)NO)cc32)c(F)c1" , Recombinant N-terminal GST tag full-length human HDAC8 (Homo sapiens, UniProt Q9BY41), IC50 = ≤ 0.025 µM

Value (IC50, Recombinant N-terminal GST tag full-length human HDAC8 (Homo sapiens, UniProt Q9BY41)) for record "O=C(NO)c1ccc2c(c1)N(Cc1ccc(F)cc1C(F)(F)F)C(=O)CO2" = 0.025 to 0.1 µM

Item "O=C(NO)c1ccc2c(c1)N(Cc1ccccc1F)CCO2" was tested on Recombinant N-terminal GST tag full-length human HDAC8 (Homo sapiens, UniProt Q9BY41); the reported IC50 is 0.025 to 0.1 µM
